System: HepG2 cells
Experiment: Fatty acid synthesis (FAS) assay in HepG2 cells
Format: cell-based
Settings: Homo sapiens, 1.5 h, 14C-citrate 50 μM, 90 min, read-out: FAS IC50 GMean
readout: IC50

Some compounds with recorded IC50:
chemical.smiles	IC50
O=C1OCCCc2ccccc2-c2cc(c(F)cc2F)NS(=O)(=O)c2cc1cc(Cl)c2O	< 2 µM
CN1CCCc2ccccc2-c2cc(c(F)cc2F)NS(=O)(=O)c2cc(cc(Cl)c2O)C1=O	2 to 10 µM
CN1CCOc2ccccc2-c2cc(c(F)cc2F)NS(=O)(=O)c2cc(cc(Cl)c2O)C1=O	10 to 50 µM
CN1c2cc(c(F)cc2F)-c2ccccc2OCCNC(=O)c2cc(Cl)c(O)c(c2)S1(=O)=O	≥ 50 µM
C[C@H]1COc2ccccc2-c2cc(c(F)cc2F)NS(=O)(=O)c2cc(cc(Cl)c2O)C(=O)N1	≥ 50 µM

Quick note, IC50 for `O=C1NCCCOc2ccccc2-c2cc(c(F)cc2F)NS(=O)(=O)c2cc1cc(Cl)c2O` landed at 10 to 50 µM

Quick note, IC50 for `O=C1NCCCc2ccccc2-c2cc(c(F)cc2F)NS(=O)(=O)c2cc1cc(Cl)c2O` landed at 10 to 50 µM

Quick note, IC50 for `O=C1OCCOc2cc(Cl)ccc2-c2cc(c(F)cc2F)NS(=O)(=O)c2cc1cc(Cl)c2O` landed at 2 to 10 µM

Quick note, IC50 for `O=C1NCCOc2ccccc2-c2cc(c(F)cc2F)NS(=O)(=O)c2cc1cc(Cl)c2OC(F)F` landed at 2 to 10 µM

Quick note, IC50 for `O=C1OCCOc2ccccc2-c2cc(c(F)cc2F)NS(=O)(=O)c2cc1cc(Cl)c2O` landed at < 2 µM

Quick note, IC50 for `O=C1NCCOc2ccccc2-c2cc(c(F)cc2F)NS(=O)(=O)c2cc1cc(Cl)c2O` landed at ≥ 50 µM

---

Target: ACLY (Homo sapiens (Human), UniProt P53396)
Sequence (P53396 whole entry): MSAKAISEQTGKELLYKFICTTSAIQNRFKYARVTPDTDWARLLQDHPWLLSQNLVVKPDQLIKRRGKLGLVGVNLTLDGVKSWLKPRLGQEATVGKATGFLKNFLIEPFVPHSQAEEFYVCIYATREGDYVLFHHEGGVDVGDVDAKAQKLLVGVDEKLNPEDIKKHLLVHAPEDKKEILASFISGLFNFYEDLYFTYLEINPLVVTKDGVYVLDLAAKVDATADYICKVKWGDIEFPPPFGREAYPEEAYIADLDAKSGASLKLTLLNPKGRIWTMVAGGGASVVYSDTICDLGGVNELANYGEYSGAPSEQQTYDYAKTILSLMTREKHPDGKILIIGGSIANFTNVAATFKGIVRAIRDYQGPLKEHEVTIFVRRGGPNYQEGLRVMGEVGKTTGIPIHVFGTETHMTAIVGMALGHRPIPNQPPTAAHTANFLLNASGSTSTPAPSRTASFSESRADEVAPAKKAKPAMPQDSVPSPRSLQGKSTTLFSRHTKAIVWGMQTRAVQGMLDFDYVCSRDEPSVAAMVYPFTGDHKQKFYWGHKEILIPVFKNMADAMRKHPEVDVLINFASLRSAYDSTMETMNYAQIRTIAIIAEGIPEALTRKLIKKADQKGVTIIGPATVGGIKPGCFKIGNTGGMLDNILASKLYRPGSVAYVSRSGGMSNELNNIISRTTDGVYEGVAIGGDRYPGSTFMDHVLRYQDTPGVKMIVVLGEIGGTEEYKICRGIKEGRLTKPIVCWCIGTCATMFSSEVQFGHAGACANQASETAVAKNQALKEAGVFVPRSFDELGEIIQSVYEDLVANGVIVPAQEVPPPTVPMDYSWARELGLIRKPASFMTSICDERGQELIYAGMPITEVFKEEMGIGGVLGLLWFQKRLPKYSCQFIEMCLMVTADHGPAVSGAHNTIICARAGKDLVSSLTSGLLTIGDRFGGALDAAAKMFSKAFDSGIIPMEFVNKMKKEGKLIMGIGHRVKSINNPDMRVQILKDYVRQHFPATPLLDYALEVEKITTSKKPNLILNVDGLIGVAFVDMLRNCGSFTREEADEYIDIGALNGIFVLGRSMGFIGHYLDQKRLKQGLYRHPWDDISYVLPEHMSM
Assay: Human ACLY (hACLY) RF/MS activity assay
Format: biochemical
Conditions: 1 nM hACLY; 30 min pre-incubation; 15 μM Coenzyme A, 50 μM ATP, 50 μM citrate; CoA to Acetyl-CoA by RF/MS; read-out: RFMS IC50 GMean
pIC50: −log10 of the molar value.
readout: pIC50

Some compounds with recorded pIC50:
compound	readout	obs.value
O=C1OCC2Cc3cccc(c3O2)-c2cc(c(F)cc2F)NS(=O)(=O)c2cc1cc(Cl)c2O (centres unmarked) [Compound 39]	pIC50	> 7.70
O=C1OCCOc2ccccc2-c2cc(c(F)cc2F)NS(=O)(=O)c2cc(O)cc1c2	pIC50	≤ 5.00
O=C1OCc2ccc(F)cc2-c2cc(F)c(F)c(c2)NS(=O)(=O)c2cc1cc(Cl)c2O	pIC50	> 7.70
O=C1OCc2cccnc2-c2cc(c(F)cc2F)NS(=O)(=O)c2cc1cc(Cl)c2O	pIC50	7.00 to 7.70
O=S1(=O)Nc2cc(ccc2F)-c2ccccc2CCOCc2cc(Cl)c(O)c1c2	pIC50	5.00 to 7.00
O=S1(=O)Nc2cc(c(F)cc2F)-c2ccccc2OCCn2cnnc2-c2cc(Cl)c(O)c1c2	pIC50	> 7.70
O=C1OCCCn2c(cc3ccccc32)-c2cc(c(F)cc2F)NS(=O)(=O)c2cc1cc(Cl)c2O	pIC50	7.00 to 7.70

Quick note, pIC50 for `O=C1OCCOc2ccccc2-c2ccc(F)c(c2)NS(=O)(=O)c2cc1cc(Cl)c2O` landed at > 7.70

---

pIC50 values for the compounds below.
Target: UniProt:P53396
Experiment: Human ACLY (hACLY) RF/MS activity assay
Type: biochemical
Settings: 1 nM hACLY; 30 min pre-incubation; 15 μM Coenzyme A, 50 μM ATP, 50 μM citrate; CoA to Acetyl-CoA by RF/MS; read-out: RFMS IC50 GMean
Protocol: Compounds of the disclosure were evaluated for their efficacy in inhibiting hACLY using rapid fire mass spectrometry (RF/MS). The final reaction volume for each compound was 20 μl and consisted of buffer (50 mM Hepes pH 8.0, 10 mM MgCl2, 0.003% BSA, 0.01% Brij35, 50 mM NaCl, 4 mM DTT) and 1 nM hACLY, EV12992, PP6692) using Greiner, 384 well small volume, deep well plates (Cat #784201). […] Both the substrate (CoA) and product (Acetyl-CoA) were quantified, and given a ratio. […]
pIC50: −log10 of the molar value.

Some compounds with recorded pIC50:
chemical.smiles	pIC50
O=C1OCc2ccccc2-c2cc(c(F)cc2F)NS(=O)(=O)c2cc1cc(Cl)c2O	> 7.70
CN1Cc2ccccc2-c2cc(c(F)cc2F)NS(=O)(=O)c2cc(cc(Cl)c2O)C1=O	5.00 to 7.00
O=C1OCCOc2ccccc2-c2cc(F)c(F)c(c2)NS(=O)(=O)c2cc1cc(Cl)c2O	> 7.70

As a next step, examine the compound that follows.
Quick note, pIC50 for `O=C1OCCCc2ccccc2-c2ccc(F)c(c2)NS(=O)(=O)c2cc1cc(Cl)c2O` landed at 7.00 to 7.70

---

Target: UniProt P53396
Experiment: Human ACLY (hACLY) RF/MS activity assay
Format: biochemical
Conditions: 1 nM hACLY; 30 min pre-incubation; 15 μM Coenzyme A, 50 μM ATP, 50 μM citrate; CoA to Acetyl-CoA by RF/MS; read-out: RFMS IC50 GMean
readout: IC50

Some compounds with recorded IC50:
compound	IC50
O=C1NCCCOc2ccccc2-c2cc(c(F)cc2F)NS(=O)(=O)c2cc1cc(Cl)c2O	100 to 10000 nM
O=C1OCCOc2ccccc2-c2cc(c(F)cc2F)NS(=O)(=O)c2cc1cc(=O)[nH]2	20 to 100 nM
Cc1cc2cc(n1)S(=O)(=O)Nc1cc(c(F)cc1F)-c1ccccc1OCCOC2=O	≥ 10000 nM
Cn1cc2cc(c1=O)S(=O)(=O)Nc1cc(c(F)cc1F)-c1ccccc1OCCOC2=O	≥ 10000 nM
O=C1OCCOc2ccc(C3CC3)cc2-c2cc(c(F)cc2F)NS(=O)(=O)c2cc1cc(Cl)c2O	100 to 10000 nM

Quick note, IC50 for `O=S1(=O)Nc2cc(ccc2F)-c2ccccc2CCCOCc2cc(Cl)c(O)c1c2` landed at 100 to 10000 nM

Quick note, IC50 for `O=C1OCc2ccccc2-c2ccc(F)c(c2)NS(=O)(=O)c2cc1cc(Cl)c2O` landed at 100 to 10000 nM

Quick note, IC50 for `O=C1Cc2cc(Cl)c(O)c(c2)S(=O)(=O)Nc2cc(c(F)cc2F)-c2ccccc2CO1` landed at < 20 nM

Quick note, IC50 for `CN1CCc2ccccc2-c2cc(c(F)cc2F)NS(=O)(=O)c2cc(cc(Cl)c2O)C1=O` landed at < 20 nM

Quick note, IC50 for `O=C1NCCc2ccccc2-c2cc(c(F)cc2F)NS(=O)(=O)c2cc1cc(Cl)c2O` landed at 20 to 100 nM

Quick note, IC50 for `O=C1OCCOc2ccccc2-c2cc(c(F)cc2F)NS(=O)(=O)c2cc1ccc2C(F)F` landed at ≥ 10000 nM

Quick note, IC50 for `O=C1NCCOc2ccccc2-c2cc(c(F)cc2F)NCc2cc1ccc2O` landed at ≥ 10000 nM

Quick note, IC50 for `O=C1OCc2ccc(F)cc2-c2cc(c(F)cc2F)NS(=O)(=O)c2cc1cc(Cl)c2O` landed at < 20 nM

Quick note, IC50 for `O=C1OCCOc2ccccc2-c2ccc(F)c(c2F)NS(=O)(=O)c2cc1cc(Cl)c2O` landed at 100 to 10000 nM

Quick note, IC50 for `CN1CCCc2ccccc2-c2cc(c(F)cc2F)NS(=O)(=O)c2cc(cc(Cl)c2O)C1=O` landed at 20 to 100 nM

Quick note, IC50 for `CN1c2cc(c(F)cc2F)-c2ccccc2OCCNC(=O)c2cc(Cl)c(O)c(c2)S1(=O)=O` landed at ≥ 10000 nM

Quick note, IC50 for `O=C1NCCOc2ccccc2-c2cc(c(F)cc2F)CS(=O)(=O)c2cc1cc(Cl)c2O` landed at ≥ 10000 nM

---

Target: ACLY (Homo sapiens (Human))
Experiment: InCell Pulse assay (permeate HEK293 cells, bind to and stabilize ACLY)
Assay type: cell-based
Conditions: HEK293 cells transfected with pICP-ACLY(FL)-ePL; 1 hour at 37° C., 55° C. heat pulse 10 minutes; read-out: InCell Pulse IC50 GMean
readout: IC50

Some molecules with recorded IC50:
molecule	assay.system	readout	obs.value
O=C1OCC[C@H]2CCCN2c2ccc(F)c(c2)NS(=O)(=O)c2cc1cc(Cl)c2O	ACLY (Homo sapiens (Human))	IC50	≥ 50000 nM
O=C1OCCOc2ccccc2-c2cc(c(F)cc2F)NS(=O)(=O)c2cc1cc(Cl)n2	ACLY (Homo sapiens (Human))	IC50	≥ 50000 nM
O=C1OCCc2cc(F)ccc2-c2ccc(F)c(c2)NS(=O)(=O)c2cc1cc(Cl)c2O	ACLY (Homo sapiens (Human))	IC50	< 300 nM
CN1Cc2ccccc2-c2cc(c(F)cc2F)NS(=O)(=O)c2cc(cc(Cl)c2O)C1=O	ACLY (Homo sapiens (Human))	IC50	≥ 50000 nM
N#Cc1ccc2c(c1)-c1cc(c(F)cc1F)NS(=O)(=O)c1cc(cc(Cl)c1O)C(=O)OCCO2	ACLY (Homo sapiens (Human))	IC50	300 to 1000 nM

Quick note, IC50 for `O=C1OCCOc2ncccc2-c2cc(c(F)cc2F)NS(=O)(=O)c2cc1cc(Cl)c2O` landed at < 300 nM

Quick note, IC50 for `Cc1cc2cc(n1)S(=O)(=O)Nc1cc(c(F)cc1F)-c1ccccc1OCCOC2=O` landed at ≥ 50000 nM

Quick note, IC50 for `O=C1NCCOc2ccccc2-c2cc(c(F)cc2F)CS(=O)(=O)c2cc1cc(Cl)c2O` landed at ≥ 50000 nM

Quick note, IC50 for O=C1OCC2Cc3cccc(c3O2)-c2cc(c(F)cc2F)NS(=O)(=O)c2cc1cc(Cl)c2O (single isomer, unassigned) [Compound 40] landed at 300 to 1000 nM

Quick note, IC50 for `O=C1OCc2ccc(F)cc2-c2cc(F)c(F)c(c2)NS(=O)(=O)c2cc1cc(Cl)c2O` landed at < 300 nM
